Provenance of the data: ChEMBL document CHEMBL1144952

biological target: UniProtKB P21554; assay: Binding affinity of compound against human cannabinoid receptor 1 in chinese hamster ovary cells by using radioligand CP-55940; assay type: cell-based, CHO
Sequence (P21554 whole entry): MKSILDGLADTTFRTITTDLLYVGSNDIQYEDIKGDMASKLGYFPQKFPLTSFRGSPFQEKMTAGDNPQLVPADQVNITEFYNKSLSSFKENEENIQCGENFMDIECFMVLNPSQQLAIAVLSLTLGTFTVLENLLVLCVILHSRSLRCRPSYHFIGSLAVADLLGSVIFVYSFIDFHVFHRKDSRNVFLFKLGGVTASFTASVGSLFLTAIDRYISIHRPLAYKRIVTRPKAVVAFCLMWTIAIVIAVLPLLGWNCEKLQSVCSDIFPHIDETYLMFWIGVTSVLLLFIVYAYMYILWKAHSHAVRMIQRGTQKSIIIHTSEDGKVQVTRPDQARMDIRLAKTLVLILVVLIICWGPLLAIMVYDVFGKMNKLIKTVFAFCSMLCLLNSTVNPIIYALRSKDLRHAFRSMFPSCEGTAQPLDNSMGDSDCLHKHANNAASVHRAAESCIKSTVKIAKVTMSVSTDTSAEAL
Exercise: state measured pKi for each of the compounds provided.
Give bare numbers, as −log10 of the molar value.

Item `COc1cccc2c3c(=O)n([C@@H]4C(C)(C)[C@@H]5CC[C@@]4(C)C5)ccc3n(CCN3CCOCC3)c12` has what recorded pKi?
7.80

Item COc1cccc2c(C(=O)NC3C(C)(C)[C@@H]4CC[C@@]3(C)C4)cn(CCN3CCOCC3)c12 (stereo partly specified) has what recorded pKi?
6.61

Item COc1cccc2c(C(=O)NC(c3ccccc3)c3ccccn3)nn(CCN3CCOCC3)c12 (stereo unspecified) has what recorded pKi?
6.79

Item COc1cccc2c(C(=O)NC3C(C)(C)[C@@H]4CC[C@@]3(C)C4)c(C)n(CCN3CCOCC3)c12 (stereo partly specified) has what recorded pKi?
8.10

Item `COc1ccccc1Cn1ccc2c(c1=O)c1cccc(OC)c1n2CCN1CCOCC1` has what recorded pKi?
5.43

---
Item COc1cccc2c(C(=O)NC3C(C)(C)[C@@H]4CC[C@@]3(C)C4)nn(CCN3CCOCC3)c12 (stereo partly specified) has what recorded pKi?
7.62

====

molecular target: Cannabinoid receptor 2 (Homo sapiens); assay: Binding affinity against human cannabinoid receptor 2 in chinese hamster ovary cells using WIN-55212-2 mesylate[57-3H]
Sequence (P34972 whole entry): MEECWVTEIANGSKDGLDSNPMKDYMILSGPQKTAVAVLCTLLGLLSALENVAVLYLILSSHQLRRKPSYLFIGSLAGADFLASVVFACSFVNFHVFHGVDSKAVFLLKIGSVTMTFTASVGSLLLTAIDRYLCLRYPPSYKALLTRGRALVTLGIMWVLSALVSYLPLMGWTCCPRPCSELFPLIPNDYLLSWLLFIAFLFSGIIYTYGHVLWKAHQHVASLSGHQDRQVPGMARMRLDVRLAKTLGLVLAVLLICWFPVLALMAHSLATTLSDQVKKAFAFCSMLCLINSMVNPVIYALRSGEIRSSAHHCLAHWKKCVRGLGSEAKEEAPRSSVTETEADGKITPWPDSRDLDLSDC
Threshold 70 nM. Ki below it: Yes. Ki at it or above: No.

Ki strictly < 70 nM for this compound? COc1cccc2c(C(=O)NC3C(C)(C)[C@@H]4CC[C@@]3(C)C4)cn(CCN3CCOCC3)c12 (some centres undefined)
Yes

Ki strictly < 70 nM for this compound? `COc1ccccc1Cn1ccc2c(c1=O)c1cccc(OC)c1n2CCN1CCOCC1`
Yes

Ki strictly < 70 nM for this compound? COc1cccc2c(C(=O)NC(c3ccccc3)c3ccccn3)nn(CCN3CCOCC3)c12 (centres undefined)
No

Ki strictly < 70 nM for this compound? COc1cccc2c(C(=O)NC3C(C)(C)[C@@H]4CC[C@@]3(C)C4)c(C)n(CCN3CCOCC3)c12 (some centres undefined)
Yes

Ki strictly < 70 nM for this compound? `COc1ccccc1CNC(=O)c1nn(CCN2CCOCC2)c2c(OC)cccc12`
No

Ki strictly < 70 nM for this compound? CCc1c(C(=O)NC2C(C)(C)[C@@H]3CC[C@@]2(C)C3)c2cccc(OC)c2n1CCN1CCOCC1 (some centres undefined)
No

Ki strictly < 70 nM for this compound? COc1cccc2c(C(=O)NC3C(C)(C)[C@@H]4CC[C@@]3(C)C4)nn(CCN3CCOCC3)c12 (some centres undefined)
Yes

Next item in the queue.
Ki strictly < 70 nM for this compound? `COc1cccc2c3c(=O)n([C@@H]4C(C)(C)[C@@H]5CC[C@@]4(C)C5)ccc3n(CCN3CCOCC3)c12`
Yes
